subject of test: Neutrophil elastase (Homo sapiens, UniProt P08246)
Sequence (P08246 whole entry): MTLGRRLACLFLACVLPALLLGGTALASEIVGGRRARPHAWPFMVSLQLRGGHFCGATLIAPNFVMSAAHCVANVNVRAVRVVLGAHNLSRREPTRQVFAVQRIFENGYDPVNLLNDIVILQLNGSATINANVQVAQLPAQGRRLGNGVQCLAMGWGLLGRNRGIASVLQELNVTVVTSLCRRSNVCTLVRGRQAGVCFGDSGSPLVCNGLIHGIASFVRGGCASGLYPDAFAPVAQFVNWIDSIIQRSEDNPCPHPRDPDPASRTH
test summary: Inhibition of human neutrophil elastase assessed as hydrolysis of N-succinyl-Ala-Ala-Pro-Val-p-nitroanilide incubated for 2 hrs measured for 20 mins by microplate reader analysis
Counter-ions that a name gives are not always drawn. Residues, ends and D or L forms follow the SMILES beside them. *: point of attachment. Tfa = O=C(C(F)(F)F)*; NHBu = CCCCN*
assay endpoint: IC50

Look over these answered cases.
> print(dat)
                                   molecule  readout.value
1  CCCCNC(=O)CC[Si](O)(O)[C@H](CC(C)C)NC(=O)[C@@H](NC(C)=O)[C@@H](C)CC       > 200 µM
2  CCCCNC(=O)CNC(=O)[C@H](CC(C)C)NC(=O)[C@@H](NC(C)=O)[C@@H](C)CC (Ac-Ile-Leu-Gly-NHBu)       > 200 µM

Measured IC50 (Neutrophil elastase (Homo sapiens, UniProt P08246)), entry CCCCNC(=O)CNC(=O)[C@H](CC(C)C)NC(=O)[C@@H](NC(=O)C(F)(F)F)[C@@H](C)CC (Tfa-Ile-Leu-Gly-NHBu) : > 200 µM

Source of measurements: ChEMBL document CHEMBL2176905
